These measurements were taken from patent US20190002549A1.

- SYSTEM UNDER TEST: recombinant human GM-CSF protein (human, UniProt P04141 18-144)
- Sequence (P04141 18-144 limits assumed): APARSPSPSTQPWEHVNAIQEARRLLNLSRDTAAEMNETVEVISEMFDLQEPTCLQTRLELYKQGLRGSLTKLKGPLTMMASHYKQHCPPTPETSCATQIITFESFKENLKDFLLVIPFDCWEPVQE
- ASSAY NAME: cell-based or functional assay
Please go through the items and note down their IC50 for TF-1 proliferation.
Kindly report the value followed by its unit.

Answered examples (2):
>>> result("Hu23F4-25 (antibody, V domains shown, Humanized) VH: EVQLVQSGAEVKKPGASVKVSCKASGYTFTSHYLHWVRQAPGQGLEWMGWIFPGDDKTKYNEKFKGRVTMTSDTSISTAYMELSRLRSDDTAVYYCARGTKYLNWNFDVWGQGTTVTVSS VL: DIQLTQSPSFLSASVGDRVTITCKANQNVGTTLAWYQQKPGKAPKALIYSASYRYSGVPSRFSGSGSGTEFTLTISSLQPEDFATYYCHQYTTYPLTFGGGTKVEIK")
"0.0122 µg/mL"
>>> result("Hu23F4-36 (antibody, V domains shown, Humanized) VH: EVQLVQSGAEVKKPGASVKVSCKASDYTLTSHYLHWVRQAPGQGLEWIGWIFPGDDKTKYNEKFKGRATLTSDTSISTAYMELSRLRSDDTAVYYCARGTKYLNWNFDVWGQGTTVTVSS VL: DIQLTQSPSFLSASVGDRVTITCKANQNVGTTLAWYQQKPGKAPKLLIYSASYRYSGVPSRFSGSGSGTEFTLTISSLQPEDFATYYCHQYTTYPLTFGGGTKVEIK")
"0.0033 µg/mL"

Inquiry: Recorded IC50 for TF-1 proliferation of Hu50C5-21 (antibody, V domains shown, Humanized; also called 35230Hu50C5-21) VH: EVQLVQSGAEVKKPGSSVKVSCKASGYIFTPYSIHWVRQAPGQGLEWIGYINPSTGYIEYNQHFKDRTTLTADKSTSTAYMELRSLRSEDTAVYYCARGGDYEGYFDYWGQGTTVTVSS VL: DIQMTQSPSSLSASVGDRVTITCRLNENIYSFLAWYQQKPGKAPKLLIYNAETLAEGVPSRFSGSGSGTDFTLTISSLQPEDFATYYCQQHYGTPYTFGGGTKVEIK , please.
Reply text: 0.0216 µg/mL
